Target: GST-ANAC092(1-176) (Arabidopsis thaliana, UniProt Q9FKA0 1-176)
Sequence: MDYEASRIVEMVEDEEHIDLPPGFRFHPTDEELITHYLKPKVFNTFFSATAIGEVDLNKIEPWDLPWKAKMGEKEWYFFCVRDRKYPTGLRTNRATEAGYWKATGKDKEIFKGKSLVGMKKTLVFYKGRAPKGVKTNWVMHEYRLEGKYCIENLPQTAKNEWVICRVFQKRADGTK
Assay: universal protein binding microarray (PBM); high values mean tight binding
Conditions: protein: recombinant; tags: GST; chain copies: 2; dsDNA, one strand shown
So I've got a bunch of sequences here, and I need their binding signal values.
Form entry: enter the amount, then its unit.

Worked cases, binding signal given:
# value lookup — system GST-ANAC092(1-176) (Arabidopsis thaliana, UniProt Q9FKA0 1-176), readout binding signal, item GACCGGAA
0.0538 E-score

State its binding signal on GST-ANAC092(1-176) (Arabidopsis thaliana, UniProt Q9FKA0 1-176): CGTACACG
0.337 E-score

// next entry
Give the reported binding signal for TAAAGCAA (system: GST-ANAC092(1-176) (Arabidopsis thaliana, UniProt Q9FKA0 1-176)).
0.138 E-score

###

target: GST-WRKY1(266-371) (Arabidopsis thaliana, UniProt Q9SI37 266-371); test: universal protein binding microarray (PBM); transcription factors of Arabidopsis thaliana; high values mean tight binding; settings: protein: recombinant; tags: GST; dsDNA, one strand shown
Sequence (Q9SI37 266-371): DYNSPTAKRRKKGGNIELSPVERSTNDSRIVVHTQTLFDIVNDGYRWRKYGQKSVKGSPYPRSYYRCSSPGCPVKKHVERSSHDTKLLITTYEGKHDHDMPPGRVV
propertyName: binding signal (E-score)
Numbers only, in E-score.

State its binding signal on GST-WRKY1(266-371) (Arabidopsis thaliana, UniProt Q9SI37 266-371): GTCGGTCA
0.45

# get_value(readout= binding signal, system= GST-WRKY1(266-371) (Arabidopsis thaliana, UniProt Q9SI37 266-371)) for TGAAGAAA
0.211

Quick check: binding signal on GST-WRKY1(266-371) (Arabidopsis thaliana, UniProt Q9SI37 266-371), item CAGTCAAA ?
0.478

I'm curious: which binding signal was measured for CCGCTGAC tested on GST-WRKY1(266-371) (Arabidopsis thaliana, UniProt Q9SI37 266-371)?
0.414

What is its binding signal for GST-WRKY1(266-371) (Arabidopsis thaliana, UniProt Q9SI37 266-371)? Entry: CTACGTCA
0.137

Would you mind listing binding signal for each of the following sequences?
1. GCTGACCA
2. CTCGGTCA
3. CGGAGTCA
4. TGACGTAA
5. GTGTCAAC
6. CACGTCAA
7. CTAAGTCA
8. ACGACCAG

[0.462, 0.451, 0.405, 0.178, 0.404, 0.403, 0.413, 0.403]

Answer for every listed entry: what is its binding signal? The entries follow.
1. GGCGGTCA
2. AGTCTTTG
3. CCAAGTCA
4. AGAGTCAA
5. GGGTTGAC
6. CAAGGTCA
7. ACACGCAA
8. AGTCTACG

1. 0.428
2. 0.424
3. 0.426
4. 0.48
5. 0.477
6. 0.425
7. 0.172
8. 0.401

I'm hoping you can list binding signal for every sequence here, please.
1. GTTGGTCA
2. GACGTAAA
3. GAGACGTA
4. GACTGACC
5. GATTTGAC
6. AAGTCAAT

1: 0.448; 2: 0.0785; 3: 0.0734; 4: 0.42; 5: 0.464; 6: 0.481

Batch request: binding signal for each of the following sequences.
1. GTATTGAC
2. AGTCAACC
3. CTATGACC
4. CAACACGC

1. 0.455
2. 0.486
3. 0.412
4. 0.125

These entries and their values trace back to paper PMC4081100.
